These entries and their values trace back to ChEMBL document CHEMBL1201862.

- Test system: SNB-19
- measurementNotes: NCI tumour cell line growth inhibition, 48 h
Calls of active or inactive are those of the source. Cut-off read from the data, not from the text of the source: active = GI50 up to about 1.1 µM and inactive = higher.
Outcome codes: active, inactive

1. COc1cc2c(cc1OC)C1=C(C=O)c3ccc(OC)c(OC)c3C(O)N1CC2 (stereo unspecified); inactive
2. c1ccc(C2=C(c3ccccc3)Sc3nnc(CCCCCCCCc4nnc5n4NC(c4ccccc4)=C(c4ccccc4)S5)n3N2)cc1; inactive
3. COc1ccc(C2C(Cl)C(=O)N2NC(=O)c2ccc(NC(C)=O)cc2)cc1OC (stereo unspecified); inactive
4. BrC(Br)=C1C(=C(Br)Br)C(Br)C1Br (stereo unspecified); inactive
5. Cc1ccc(S(=O)OCc2c(C)c(C)c(COS(=O)c3ccc(C)cc3)c(C)c2C)cc1 (stereo unspecified); inactive
6. CCOc1ccc(C(c2c(O)c3ccccc3oc2=O)c2c(O)c3ccccc3oc2=O)cc1; inactive
7. O=C(Nc1ccccc1)c1cc(S(=O)(=O)NC2=Nc3ccc(Cl)cc3C(c3ccccc3)N2)c(SSc2cc(Cl)c(C(=O)Nc3ccccc3)cc2S(=O)(=O)NC2=Nc3ccc(Cl)cc3C(c3ccccc3)N2)cc1Cl (stereo unspecified); inactive
8. C/C(=N/NC(=S)Nc1ccccc1Cl)c1ccccn1; inactive
9. C/C(=C/CC[C@](C)(OC1OC(CO)C(O)C(O)C1O)[C@H]1CC[C@]2(C)[C@@H]1CC[C@@H]1[C@@]3(C)CC[C@H](O)C(C)(C)[C@@H]3C[C@H](O)[C@]12C)CO (stereo partly specified); inactive
10. COC1=CC(=O)c2c(cc(COP(=O)(N(C)CCBr)N(C)CCBr)n2C)C1=O; active
11. CCCSc1ccc2[nH]c(N3C(=O)/C(=C/c4ccc(SC)cc4)N=C3c3ccccc3)cc2c1; inactive
12. C=C(C)C(=O)OC1CC2=CC(CC3(C)OC3C3OC(=O)C(=C)C13)OC2=O (stereo unspecified); inactive
13. CC(O)CN1c2ccccc2Sc2ccc(Cl)cc21 (stereo unspecified); inactive
14. COc1c(OC/C=C(\C)CCC=C(C)C)ccc2ccc(=O)oc12; inactive
15. Cc1ccc(-c2nc(N/N=C/c3ccc(O)cc3)c3ccccc3n2)cc1; inactive
16. CC(=O)OCC(OC(C)=O)C(OC(C)=O)C(/C=N\Nc1nc2ccccc2c(=O)[nH]1)OC(C)=O (stereo unspecified); inactive
17. Cc1ccc(NC(=O)C(=O)Cc2cc[n+]([O-])cc2)cc1; inactive
18. CC(=O)Nc1cc2c3c(c1)CCCN3CCC2; inactive
19. CC(=O)Nc1ccc(C(=O)N2N=C(C)/C(=C/c3cccc(O)c3)C2=O)cc1; inactive
20. Oc1cc(O)c2ccc(-c3ccc(O)c(O)c3)[o+]c2c1; inactive
21. Cn1c2ccccc2c2c3c(c4c5ccccc5n(C)c4c21)C(=O)c1ccccc1C3=O; inactive
22. COc1cc(OC)c2c(=O)c3c([N+](=O)[O-])cccc3n(C)c2c1; inactive
23. N#CC1CCCC2SC(F)(F)C(F)(F)C12 (stereo unspecified); inactive
24. CC1(c2ccc(F)cc2)C(C#N)C(=O)NC(=O)C1C#N (stereo unspecified); inactive
25. COC(=O)C1CCC(=O)N1C(c1ccc(OC)cc1)c1ccc2c(c1)OCO2 (stereo unspecified); inactive
26. O=C1Oc2ccccc2C1C/C(=N\Nc1ccccc1)c1ccccc1O (stereo unspecified); inactive
27. Cc1ccc2c(CC(=O)O)cc(=O)oc2c1; inactive
28. Nc1ncn(C/C=C/c2ccccc2)c2ncnc1-2; inactive
29. Fc1ccccc1C1SCC2=Nc3ccccc3CN21 (stereo unspecified); inactive
30. COC(=O)/C(C#N)=C(\N)c1c(C)c2ccccc2oc1=N; inactive
31. O=C(/C=C/c1ccc(O)c(O)c1O)OCCc1ccccc1; inactive
32. C/C(=N/O)c1cccc(Nc2nc3ccccc3c3[nH]c4ccccc4c23)c1; inactive
33. CN(C)CC1CN=C(N)O1 (stereo unspecified); inactive
34. Oc1ccc(-c2nc3cc(F)ccc3s2)cc1; inactive
35. O=c1n(Cc2ccccc2)c2ccccc2n1CC1CS1 (stereo unspecified); inactive
36. COC(=O)/C(=N\NC(=O)c1ccccc1O)C(C#N)c1ccccc1 (stereo unspecified); inactive
37. O=C(CC1(O)C(=O)Nc2c(Cl)cc(Cl)cc21)c1ccc(Br)cc1Br (stereo unspecified); inactive
38. CC(=O)Oc1c2oc3cc(O)c(O)cc3c2c(OC(C)=O)c2oc3cc(O)c(O)cc3c12; inactive
39. C/C(=C\CNc1nc(Cl)nc2[nH]cnc12)CO; inactive
40. Cc1cs/c(=N/c2ccccc2)n1CCC(O)(P(=O)(O)O)P(=O)(O)O; inactive
41. CCOC(=O)Nc1cc2c(c(N)n1)N=C(c1ccccc1)[C@H](C)N2 [MIVOBULIN ISETHIONATE]; active

---

- System: LXFL 529
- measurementNotes: NCI tumour cell line growth inhibition, 48 h
Activity calls are given as the source filed them. Rule as the data show it: active = GI50 up to about 1.1 µM and inactive = higher.
Outcome codes: class 1 = active, class 0 = inactive

1) Cc1c(Cl)cccc1NC(=O)C(=O)C(C(=O)c1ccccc1-c1ccccc1)C1OC(=O)c2ccccc21 (centres undefined); class 0
2) COc1cc2c(c(OC)c1OC)-c1ccc(SC)c(=O)cc1C(CC(=O)Oc1cccc([N+](=O)[O-])c1)C2 (centres undefined); class 1
3) CC(C)COC(=O)N1N=NC2C3CC(=O)C(O3)C21 (centres undefined); class 0
4) COc1cc(OC)c(OC)cc1/C=N/NC(=O)N/N=C/c1cc(OC)c(OC)cc1OC; class 0
5) COc1ccc(/C=C/c2cc(OC)c(OC)c(OC)c2)cc1; class 0
6) CC1=C(C(=O)NCc2ccccc2)C(c2ccccc2O)C(C(=O)NCc2ccccc2)=C(C)N1; class 0
7) CC(C)N1CN(C(C(=O)N[C@@H]2C(=O)N3C2SC(C)(C)C3C(=O)O)c2ccccc2)CSC1=S (some centres undefined); class 0
8) C[C@@]12CCCc3coc(c31)C(=O)c1cc3c(cc12)C(=O)C=CC3=O; class 0
9) CC1CCN(c2cc(-c3cc4ccccc4o3)oc(=O)c2C#N)CC1; class 0

---

- System: CAKI-1
- measurementNotes: NCI tumour cell line growth inhibition, 48 h
The source made the active and inactive calls. Rule as the data show it: active = GI50 up to about 1.1 µM and inactive = higher.
Reported GI50 by item:
resultType: GI50

1. O=C1/C(=C/c2ccc(Cl)cc2)Sc2scc(-c3cccc([N+](=O)[O-])c3)[n+]21; 3.01 µM (inactive)
2. CCOC(=O)Nc1ccc(S(=O)(=O)OC)cc1.CCOC(=O)Nc1ccc(S(=O)(=O)OC)cc1.Cc1cn(C2CC(O)C(CO)O2)c(=O)[nH]c1=O; > 100 µM (inactive)
3. CC(C)/C(Cl)=N\OC(NC(=O)P(=O)(c1ccccc1)c1ccccc1)(C(F)(F)F)C(F)(F)F; 23.7 µM (inactive)
4. Cc1ccc(NC(=O)c2cc3ccccc3c(/N=N/c3cc(S(=O)(=O)O)ccc3O)c2O)c(C)c1; 32.5 µM (inactive)

---

Reported GI50 by item:
- Test system: A498
- measurementNotes: NCI tumour cell line growth inhibition, 48 h
Calls of active or inactive are those of the source. Cut-off read from the data, not from the text of the source: active = GI50 up to about 1.1 µM and inactive = higher.
resultType: GI50

1. COc1ccc(N/N=C2\CCOc3ccc(C)cc3C2=O)cc1; 59.8 µM (inactive)
2. CC(C)(C)OC(=O)NCCC(=O)NC1(c2cc3ccccc3s2)CCCCC1; 22.9 µM (inactive)
3. CC1(C)CC(=O)c2[nH]c3ccccc3c2CC(=O)NCCc2cn1cn2; > 100 µM (inactive)
4. O=C1NC2NC3NC(=O)NC3NC2N1 (stereo unspecified); > 100 µM (inactive)
5. CCC1N2CCCCC2[C@@H]2c3[nH]c4ccccc4c3CCN12 (stereo partly specified); > 100 µM (inactive)
6. COc1ccc(NC(=O)c2cc(OC)c(OC)c(OC)c2)cc1; 43.6 µM (inactive)
7. CC(C)n1c(=O)n(-c2ccccc2)n(C(C)(C)C)c1=O; > 100 µM (inactive)
8. C/C(=N/NC(=S)Nc1ccccc1Cl)c1ccccn1; 1.46 µM (inactive)
9. CN1Cc2ccccc2S(=O)(=O)n2cccc2C1=O; > 100 µM (inactive)
10. COc1cc(/C=C2\C[C@H]3[C@@H]4CCc5cc(O)ccc5[C@H]4CC[C@]3(C)C2=O)cc(OC)c1OC; 32.4 µM (inactive)
11. CC1(C)CCSC(/C=C/c2ccccc2)=N1; 20.1 µM (inactive)

---

- Tested on: T47D
- measurementNotes: NCI tumour cell line growth inhibition, 48 h
Calls of active or inactive are those of the source. Rule as the data show it: active = GI50 up to about 1.1 µM and inactive = higher.
Outcome codes: active, inactive

1. CC1(C)CC[C@]2(C(=O)O)CC[C@]3(C)[C@H](C(=O)C=C4[C@@]5(C)C=C(C#N)C(=O)C(C)(C)[C@@H]5CC[C@]43C)[C@@H]2C1; active
2. N#Cc1c(C#N)c(-c2ccco2)n(/N=C/c2ccco2)c1N; inactive
3. c1nncn1C12C3C4C5C3C1C5C42 (stereo not given); inactive
4. BrC(Br)=C1C(=C(Br)Br)C(Br)C1Br (stereo not given); inactive
5. CC(=O)C1=C(C)N(c2ccc(C)cc2)C2(O)C3=C(C(=O)c4ccccc4C3=O)C(O)=CC12Cl (stereo not given); inactive
6. O=S(=O)(O)c1ccc2c(/N=N/c3ccccc3Cl)c(O)ccc2c1; inactive
7. Cc1ccc(/C=C/C(=O)c2cc(CN(C)C)c(O)c(CN(C)C)c2)cc1; inactive
8. CC(=O)Nc1cc2c3c(c1)CCCN3CCC2; inactive
9. N#CC1CCCC2SC(F)(F)C(F)(F)C12 (stereo not given); inactive
10. CCOC(=O)/C1=C(\C)N(c2ccc(C)cc2)C(=O)c2ccccc2C(=O)c2c(O)ccc(O)c21; inactive
